Study System: muscle-like nicotinic receptors (human clonal line TE671/RD) (Homo sapiens, UniProt P02708+P07510+Q07001)
Construct: these cells express muscle-like nicotinic receptors; endogenous in cells; host or cells: TE671/RD (human embryonal rhabdomyosarcoma line)
Sequence (P07510 23-517): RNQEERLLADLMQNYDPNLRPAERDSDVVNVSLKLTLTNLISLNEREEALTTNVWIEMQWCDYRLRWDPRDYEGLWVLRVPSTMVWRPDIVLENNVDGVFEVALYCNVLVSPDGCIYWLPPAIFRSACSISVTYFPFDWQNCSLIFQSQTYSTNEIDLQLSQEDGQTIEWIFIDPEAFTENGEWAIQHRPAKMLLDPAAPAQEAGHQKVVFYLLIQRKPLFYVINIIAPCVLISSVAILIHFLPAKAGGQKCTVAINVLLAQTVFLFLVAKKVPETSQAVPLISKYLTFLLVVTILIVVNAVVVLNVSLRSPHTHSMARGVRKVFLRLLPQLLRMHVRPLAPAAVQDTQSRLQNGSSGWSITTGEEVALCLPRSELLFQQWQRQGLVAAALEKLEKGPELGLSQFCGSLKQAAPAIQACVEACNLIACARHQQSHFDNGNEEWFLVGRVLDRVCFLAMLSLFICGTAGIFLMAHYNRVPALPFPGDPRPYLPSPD
Sequence (P02708 21-457): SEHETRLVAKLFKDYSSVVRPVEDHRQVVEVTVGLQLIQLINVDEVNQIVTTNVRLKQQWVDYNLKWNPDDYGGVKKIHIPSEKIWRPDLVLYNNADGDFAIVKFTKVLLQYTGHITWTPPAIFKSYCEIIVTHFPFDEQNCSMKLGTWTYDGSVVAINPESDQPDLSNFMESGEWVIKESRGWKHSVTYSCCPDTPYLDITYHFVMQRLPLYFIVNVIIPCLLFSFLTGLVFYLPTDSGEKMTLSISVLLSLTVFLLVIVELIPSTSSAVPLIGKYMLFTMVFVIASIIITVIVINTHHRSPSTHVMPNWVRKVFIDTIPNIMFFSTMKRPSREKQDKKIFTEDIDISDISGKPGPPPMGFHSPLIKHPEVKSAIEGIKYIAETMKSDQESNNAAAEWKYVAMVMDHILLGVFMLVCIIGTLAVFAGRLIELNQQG
Sequence (Q07001 22-517): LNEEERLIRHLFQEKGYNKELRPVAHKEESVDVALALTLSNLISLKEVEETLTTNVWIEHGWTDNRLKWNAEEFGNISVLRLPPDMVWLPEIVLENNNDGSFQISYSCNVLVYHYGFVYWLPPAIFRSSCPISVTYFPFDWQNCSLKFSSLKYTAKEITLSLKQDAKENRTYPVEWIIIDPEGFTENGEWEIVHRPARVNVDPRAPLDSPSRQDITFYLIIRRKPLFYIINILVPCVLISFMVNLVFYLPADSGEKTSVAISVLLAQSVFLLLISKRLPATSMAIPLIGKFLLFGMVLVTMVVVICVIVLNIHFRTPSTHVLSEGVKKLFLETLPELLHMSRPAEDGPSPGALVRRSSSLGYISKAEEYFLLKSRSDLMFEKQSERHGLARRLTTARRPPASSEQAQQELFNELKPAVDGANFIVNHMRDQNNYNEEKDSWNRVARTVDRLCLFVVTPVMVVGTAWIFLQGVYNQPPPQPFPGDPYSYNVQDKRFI
Method Summary: cell-based
Test Parameters: human muscle, TE671/RD, 86Rb+ efflux, 4 minutes at 20° C.; read-out: HUMAN MUSCLE EC50 (concentration resulting in half maximal activation of specific ion flux)
Metric: EC50 (µM)
Record the value in µM, omitting the unit from your answer.

Molecule	Result Number
CC(=O)OCC1CC2CCN1CC2.[O-][Cl+3]([O-])([O-])O (racemic)	3
O=C(O)/C=C/C(=O)O.O=C(O)/C=C/C(=O)O.c1cncc(C2CC3CCN2CC3)c1 (racemic) [Sample No. 1, difumarate]	0.055
Fc1cncc(C2CCCN2)c1 (racemic) [Sample No. 5, (+/-)-5-fluoronornicotine]	30
C[N+](C)(C)CCOC(=O)CCC(=O)OCC[N+](C)(C)C [Sample No. C-2, succinylcholine chloride, reference compound]	30

(Q) I am curious: what EC50 value has been reported for Fc1cncc(C2=NCCCC2)c1 [Sample No. 2, 5-fluoroanabaseine dipicrate] ?
(A) 1

(Q) I am curious: what EC50 value has been reported for CN1CCCC1c1cncc(Cl)c1.[O-][Cl+3]([O-])([O-])O (racemic) [Sample No. 6, (+/-)-5-chloronicotine perchlorate] ?
(A) 30
